Ref: patent US5229381A

Molecular target: human polymorphonuclear leukocyte elastase (Homo sapiens, UniProt P08246)
Construct: Crude extract of human polymorphonuclear leukocytes (PMN) containing elastase activity; endogenous in cells; host or cells: human polymorphonuclear leukocytes (crude extract)
Sequence (P08246 30-247 limits assumed): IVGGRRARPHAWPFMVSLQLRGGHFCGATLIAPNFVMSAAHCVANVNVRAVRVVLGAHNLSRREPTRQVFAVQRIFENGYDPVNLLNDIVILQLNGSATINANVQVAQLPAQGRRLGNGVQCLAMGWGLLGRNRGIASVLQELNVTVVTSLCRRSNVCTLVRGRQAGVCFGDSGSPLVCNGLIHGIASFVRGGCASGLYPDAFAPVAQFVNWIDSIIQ
Assay: Inhibition of human polymorphonuclear leukocyte (granulocyte) elastase via hydrolysis of Boc-AAPAN or Boc-AAPVN
Assay type: biochemical
Conditions: pH 7.5, Table VI, (per mole per second); read-out: kobs/I, second order rate constant of inactivation of the enzyme
Overview of recorded kinact/KI for various compounds
Form entry: value (M⁻¹ s⁻¹) — number only.

                                   compound  readoutunits  recordedmeasurement
0  CCC[C@@H](NC(=O)N1C(=O)C(CC)(CC)[C@@H]1Oc1ccc(CC(=O)O)c(C)c1)c1ccc(C)cc1 [Table VI: 3-Me,4-CH2 COOH; nPr; 4-Me]       M⁻¹ s⁻¹               998000
1  CCC[C@@H](NC(=O)N1C(=O)C(CC)(CC)[C@@H]1Oc1ccc(C(=O)O)c(Cl)c1)c1ccc(C)cc1 [Table VI: 3-Cl,4-COOH; nPr; 4-Me]       M⁻¹ s⁻¹               621000
2  CCC[C@@H](NC(=O)N1C(=O)C(CC)(CC)[C@@H]1Oc1ccc(C(=O)O)cc1)c1ccc(C)cc1 [Table VI: 4-COOH; nPr; 4-Me]       M⁻¹ s⁻¹               389000

[in] Quick one: kinact/KI for CC[C@@H](NC(=O)N1C(=O)C(CC)(CC)[C@@H]1Oc1ccc(C(=O)CCC(=O)O)cc1)c1ccccc1 [Table VI: 4-CO(CH2)2 COOH; Et; H] ?
[out] 272000

[in] Item under review: CCC1(CC)C(=O)N(C(=O)N[C@H](COC)c2ccccc2)[C@H]1Oc1ccc(C(=O)O)cc1 [Table VI: 4-COOH; CH2 OMe(s); H] . Reported kinact/KI?
[out] 6980

[in] Name the reported kinact/KI value associated with the compound CCC1(CC)C(=O)N(C(=O)N[C@H](C)c2ccccc2)[C@H]1Oc1ccc(CCC(=O)O)cc1 [Table VI: 4-(CH2)2 COOH; Me; H]
[out] 9480

[in] # get_value(readout='kinact/KI', item= CCC1(CC)C(=O)N(C(=O)N[C@@H](COC)c2ccccc2)[C@H]1Oc1ccc(CC(=O)O)cc1 [Table VI: 4-CH2 COOH; CH2 OMe(R); H] )
[out] 11000

[in] I am curious: what kinact/KI value has been reported for CCC1(CC)C(=O)N(C(=O)N[C@H](c2ccccc2)c2ccc(-c3ccccc3)cc2)[C@H]1Oc1ccc(C(=O)O)cc1 [Table VI: 4-COOH; Ph; 4-Ph] ?
[out] 67800
